Test system: HUVEC
protocol_description: antiproliferative activity on HUVEC cells
Format: cell-based
run_conditions: Homo sapiens, HUVEC, 72 h
outcome_measure: GI50 (µM)

[[record]]
molecule = "COc1ccc2c(c1)CCC1C2CC[C@]2(C)C1C[C@@H](NCc1ccccc1O)[C@@H]2O (stereo partly shown) [10c]"
test_system = "HUVEC"
assay_result = 2.9

[[record]]
molecule = "COc1ccc2c(c1)CCC1C2CC[C@]2(C)C1C[C@H](NCc1ccccc1O)[C@@H]2O (stereo partly shown) [11c]"
test_system = "HUVEC"
assay_result = 22

[[record]]
molecule = "COc1ccc2c(c1)CCC1C2CC[C@@]2(C)C1C[C@H](NCc1ccccc1O)[C@@H]2O (stereo partly shown)"
test_system = "HUVEC"
assay_result = 2.5

[[record]]
molecule = "COc1ccc2c(c1)CCC1C2CC[C@@]2(C)C1C[C@@H](NCc1ccccc1O)[C@H]2O (stereo partly shown)"
test_system = "HUVEC"
assay_result = 2.2


---

System: P. falciparum (strain 3D7)
protocol_description: 72 h 3H-hypoxanthine incorporation assay, asexual blood stages
Assay type: cell-based, Plasmodium falciparum
run_conditions: Plasmodium falciparum, 3D7, 72 h 3H-hypoxanthine incorporation, asexual blood stages; read-out: Antiplasmodial activity IC50 Pf (3D7)
pIC50: −log10 of the molar value.
Documented pIC50 across a set of molecules
outcome_measure: pIC50

[[record]]
molecule = "COc1ccc2c(c1)CCC1C2CC[C@@]2(C)C1C[C@@H](NCc1cc(Cl)ccc1O)[C@@H]2O (stereo partly shown) [7s]"
inequality_operator = "="
assay_result = 7.26

[[record]]
molecule = "COc1ccc2c(c1)CCC1C2CC[C@@]2(C)C1CC[C@H]2NCc1ccccc1O (stereo partly shown) [1c]"
inequality_operator = "="
assay_result = 8.13

[[record]]
molecule = "COc1ccc2c(c1)CCC1C2CC[C@@]2(C)C1C[C@@H](NCc1ccccc1O)[C@H]2O (stereo partly shown) [5c]"
inequality_operator = "="
assay_result = 6.80

[[record]]
molecule = "COc1ccc2c(c1)CCC1C2CC[C@@]2(C)C1CC[C@@H]2NCc1ccccc1O (stereo partly shown) [2c]"
inequality_operator = "="
assay_result = 7.14

[[record]]
molecule = "COc1ccc2c(c1)CCC1C2CC[C@]2(C)C[C@H](NCc3ccccc3O)CC12 (stereo partly shown) [3c]"
inequality_operator = "="
assay_result = 7.38

[[record]]
molecule = "COc1ccc2c(c1)CCC1C2CC[C@@]2(C)C1C[C@H](/N=C/c1ccccc1O)[C@@H]2O (stereo partly shown) [8b]"
inequality_operator = "<"
assay_result = 5.60

[[record]]
molecule = "Oc1ccccc1/C=N/c1ccc2ccc3cccc4ccc1c2c34 [20b]"
inequality_operator = "<"
assay_result = 4.82

[[record]]
molecule = "COc1ccc2c(c1)CCC1C2CCC2(C)C(NCc3ccccc3OC)CCC12 (stereo not shown) [1i]"
inequality_operator = "="
assay_result = 6.06

[[record]]
molecule = "CCN(CC)c1ccc(CN[C@H]2CCC3C4CCc5cc(OC)ccc5C4CC[C@@]32C)c(O)c1 (stereo partly shown) [2q]"
inequality_operator = "="
assay_result = 6.15

[[record]]
molecule = "Oc1ccccc1CNC1CCCCCCC1 [17c]"
inequality_operator = "="
assay_result = 5.70


---

Structures can show the parent of a compound that is named as a salt.
Known melting point of a selection of compounds
outcome_measure: melting point

[[record]]
compound = "Oc1ccccc1CNC1CCCCC1 (as salt: perchlorate) [16c]"
assay_result = "152 to 153 °C"

[[record]]
compound = "Oc1ccccc1CNc1ccc2ccc3cccc4ccc1c2c34 [20c]"
assay_result = "160 to 163 °C"

[[record]]
compound = "Oc1ccccc1CNC1CCCCCCC1 (as salt: perchlorate) [17c]"
assay_result = "136 to 138.5 °C"

[[record]]
compound = "Oc1ccccc1CNc1ccccc1 (as salt: perchlorate) [19c]"
assay_result = "183 to 186 °C"

[[record]]
compound = "Oc1ccccc1CNC1CCCC1 (as salt: perchlorate) [15c]"
assay_result = "168 to 169 °C"

